# reported pIC50; entries follow
- Tested on: Plasmodium falciparum
- Method notes: Antiplasmodial activity against chloroquine-resistant Plasmodium falciparum W2/Indochina by [3H]hypoxanthine uptake
- Format: functional, organism-based
- Test settings: Plasmodium falciparum, W2/Indochina
pIC50: −log10 of the molar value.
Observation type: pIC50

Compound: C/C=C1\CN2CCC3c4ccccc4NC3[C@@H]2C[C@@H]1CC1=NCCc2c1[nH]c1ccccc21 (stereo partly specified) [DIHYDROUSAMBARENSINE]
Qualifier: =
Reported: 7.49

Compound: CC[C@H]1CN2CCC3c4ccccc4NC3[C@H]2C[C@@H]1C[C@@H]1NCCc2c1[nH]c1ccccc21 (stereo partly specified)
Qualifier: =
Reported: 5.72

Compound: C/C=C1/CN2CC[C@@]34c5ccccc5N5C([C@H]6[C@@H]7N(C(C)=O)c8ccccc8[C@@]78CCN7C/C(=C/C)[C@@H]6C[C@H]78)OC=C([C@H]1C[C@H]23)[C@H]54 (stereo partly specified)
Qualifier: =
Reported: 5.48

Compound: C[C@@H]1CC[C@H]2[C@@H](C)C(=O)O[C@@H]3O[C@@]4(C)CC[C@@H]1[C@]32OO4
Qualifier: =
Reported: 8.70

Compound: C/C=C1/CN2[C@@H](C3=C[C@@H]4[C@@H]5N(C3=O)c3ccccc3[C@@]53CCN5C/C(=C/C)[C@@H]4C[C@H]53)C[C@@]34c5ccccc5N5C(=O)CC=C([C@H]1C[C@H]23)[C@H]54
Qualifier: =
Reported: 6.58

Compound: C/C=C1/CN2CC[C@]34c5ccccc5N5C(=O)C([C@H]6C[C@]78c9ccccc9N9C(=O)C=C[C@@H]([C@H]97)[C@H]7C[C@@H]8N6C/C7=C/C)=C[C@H]([C@H]53)[C@H]1C[C@H]24
Qualifier: =
Reported: 5.00

Compound: C=C1c2[nH]c3ccccc3c2CCN2C[C@@H](CC)CC[C@H]12 [EPINGOUNIENSINE]
Qualifier: =
Reported: 4.80

Compound: CC[C@H]1CN2CCC3c4ccc(O)c([C@@H]5CCCN5C)c4NC3[C@@H]2C[C@@H]1C[C@H]1c2[nH]c3ccccc3c2CCN1C (stereo partly specified)
Qualifier: =
Reported: 6.82

Compound: C/C=C1/CN2CCc3c([nH]c4ccccc34)[C@@H]2C[C@@H]1C1=CN2c3ccccc3[C@]34CCN5C/C(=C/C)[C@H](C[C@H]53)[C@@H]([C@@H]1O)[C@H]24
Qualifier: =
Reported: 5.02

Compound: O=C1C[C@@H]2OCC=C3CN4[C@@H](C5=C[C@@H]6[C@@H]7N(C5=O)c5ccccc5[C@@]75CCN7C/C(=C/CO)[C@@H]6C[C@H]75)C[C@]56c7ccccc7N1[C@H]5[C@@H]2[C@H]3C[C@H]46
Qualifier: =
Reported: 7.07

Compound: C[C@@H]1OC[C@H]2[C@@H]3C[C@H]4N(CC[C@]45c4ccccc4N[C@H]25)/C(=C/C2=CN4CC[C@]56c7ccccc7N[C@H]5[C@H](CO)[C@H]2C[C@H]46)[C@@H]31
Qualifier: <
Reported: 4.70

Compound: C/C=C1/CN2CCc3c([nH]c4ccccc34)[C@@H]2C[C@@H]1Cc1nccc2c1[nH]c1ccccc12
Qualifier: =
Reported: 6.23

Compound: C/C=C1\CN2CC[C@]34c5ccccc5N5[C@H]3[C@@H]([C@H]3O[C@@H]5[C@]5(OC)[C@@H]6N3c3ccccc3[C@@]63CCN6C/C(=C\C)[C@@H]5C[C@H]63)[C@H]1C[C@H]24
Qualifier: =
Reported: 6.91

Compound: c1ccc2c(c1)C[C@H]1C3Nc4ccccc4C3CCN1C2 (stereo partly specified)
Qualifier: =
Reported: 4.74

Compound: C=CC1CN2CC[C@@]34c5cc(C(C)C6=CN7CC[C@]89c%10ccccc%10N[C@H]8[C@@H](CO)[C@H]6C[C@H]79)ccc5N[C@@H]3[C@@H](CO)[C@@H]1C[C@@H]24 (stereo in doubt; 68)
Qualifier: =
Reported: 4.77

Compound: C/C=C1/CN2[C@@H](C3=C[C@@H]4[C@@H]5N(C3=O)c3ccccc3[C@@]53CCN5C/C(=C/CO)[C@@H]4C[C@H]53)C[C@@]34c5ccccc5N5C(=O)CC=C([C@H]1C[C@H]23)[C@H]54
Qualifier: =
Reported: 6.85

Compound: CC[C@H]1CN2CCC3c4ccccc4NC3[C@@H]2C[C@@H]1C[C@H]1NCCc2c1[nH]c1ccccc21 (stereo partly specified)
Qualifier: =
Reported: 6.31

Compound: C/C=C1/CN2CCc3c([nH]c4ccccc34)[C@@H]2C[C@@H]1C1CCC([C@H]2C[C@H]3c4[nH]c5ccccc5c4CCN3C/C2=C/C)C1 (stereo partly specified)
Qualifier: =
Reported: 5.55

Compound: C/C=C1/CN2CCc3c([nH]c4ccccc34)[C@@H]2C[C@@H]1C1=CN2c3ccccc3[C@@]34CCN5CC6=CCO[C@@H]1[C@@H]([C@H]23)[C@H]6C[C@H]54
Qualifier: =
Reported: 6.24

Compound: C=C1c2[nH]c3ccccc3c2CCN2C[C@H](CC)CC[C@H]12
Qualifier: =
Reported: 4.69

Compound: C=C[C@H]1CN2CCc3c([nH]c4ccccc34)[C@@H]2C[C@@H]1C[C@H]1c2[nH]c3ccccc3c2CCN1C
Qualifier: =
Reported: 5.63
